# runDescription: High-throughput drug toxicity screening in the BPDCN cell line Gen2.2 (AID 1224824);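 further: cells exposed to compounds for 48 h before reading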
# conditionsUsed: Gen2.2 BPDCN cells; at 45.8 µM (top of the series) unless noted
Values of cell viability, % of control (lower = more cytotoxic) strictly less than 40% map to Condition met, and values of at least 40% map to Condition not met.

Q) Lab log: compare recorded cell viability, % of control (lower = more cytotoxic) with 40%; is it strictly lower for `CC(C)(C)c1cc(NC(=O)Nc2ccc(-c3cn4c(n3)sc3cc(OCCN5CCOCC5)ccc34)cc2)no1` ?
A) Condition not met

Q) Follow-up entry: `CNC(=O)c1cc(Oc2ccc(NC(=O)Nc3cc(C(C)(C)C)nn3-c3ccc4ncccc4c3)c(F)c2)ccn1`
A) Condition met

Q) Follow-up entry: `CCCCCN(CCC12CC3CC(CC(C3)C1)C2)C(=O)NCCCc1ccncc1`
A) Condition not met

Q) Follow-up entry: `Cc1cnc(-c2cnc(NCCNc3ccc(C#N)cn3)nc2-c2ccc(Cl)cc2Cl)[nH]1`
A) Condition not met

Q) Follow-up entry: `CC(=O)OCCN1C(=O)c2c(C)nc3ccc(S(=O)(=O)N4CCOCC4)cc3c2C1=O`
A) Condition not met

Q) Follow-up entry: `O=C(O)CO.[NH2-].[NH2-].[Pt+2]`
A) Condition not met

Q) Follow-up entry: `COc1cc2c(Nc3ccc(NC(=O)c4ccccc4)cc3)ncnc2cc1OCCCN1CCOCC1`
A) Condition met

Q) Follow-up entry: `Cc1ccc(-c2ncn(-c3ccc(Nc4nccc(-c5cccc(N6CCOCC6)c5)n4)cc3)n2)cn1`
A) Condition met
